Each recorded value in this set is attributed to patent US20250215104A1.

- Test system: T1, cynomolgus suPAR (cynomolgus, UniProt Q9GK78 23-303, limits assumed)
- T1 construct: Target antigen of the off-rate screen; also called cynomolgus uPAR; cynoPLAUR-His
- T1 sequence (Q9GK78 23-303 limits assumed): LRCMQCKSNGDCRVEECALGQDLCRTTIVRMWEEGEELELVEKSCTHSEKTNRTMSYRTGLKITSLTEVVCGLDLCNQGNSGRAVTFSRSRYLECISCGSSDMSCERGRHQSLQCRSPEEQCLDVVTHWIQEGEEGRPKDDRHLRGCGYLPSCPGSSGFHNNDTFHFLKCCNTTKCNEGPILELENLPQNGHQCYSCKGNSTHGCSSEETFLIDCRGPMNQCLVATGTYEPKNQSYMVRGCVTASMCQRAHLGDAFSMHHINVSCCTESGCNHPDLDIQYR
- Test method notes: BLI (Octet) off-rate screen of scFv clones
Parameter threshold = 0.0002 s⁻¹. Response is Fulfilled when koff meets or exceeds it, else Not fulfilled.

{"Binder": "suPAR_DB03_B02 (scFv, V domains shown, screened as scFv) VH: QVQLVQSGAEVKKPGASVKVSCKASGDTFTSYYMHWVRQAPGQGLEWMGWIDHENGSTSYDQKFQGRVTMTRDTSTSTVYMELSSLRSEDTAVYYCARGYDVDWFVYWGQGTLVTVSS VL: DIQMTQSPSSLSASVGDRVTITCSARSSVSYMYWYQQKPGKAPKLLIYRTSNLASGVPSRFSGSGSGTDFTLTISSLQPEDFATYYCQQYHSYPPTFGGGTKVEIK", "Class label": "Not fulfilled"}
{"Binder": "suPAR_DB03_D09 (scFv, V domains shown, screened as scFv) VH: QVQLVQSGAEVKKPGASVKVSCKASGYTFTGYYMHWVRQAPGQGLEWMGWIDHENGSTIYAQKFQGRVTMTRDTSTSTVYMELSSLRSEDTAVYYCARGYDVDWFVYWGQGTLVTVSS VL: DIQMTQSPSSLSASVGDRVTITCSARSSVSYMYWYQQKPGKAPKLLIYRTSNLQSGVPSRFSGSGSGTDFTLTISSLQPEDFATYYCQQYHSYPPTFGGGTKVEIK", "Class label": "Fulfilled"}
{"Binder": "suPAR_DB03_B08 (scFv, V domains shown, screened as scFv) VH: QVQLVQSGAEVKKPGASVKVSCKASGYAFTGYYMHWVRQAPGQGLEWMGWIDHENGNTIYDQKFQGRVTMTRDTSTSTVYMELSSLRSEDTAVYYCARGYDVDWFVYWGQGTLVTVSS VL: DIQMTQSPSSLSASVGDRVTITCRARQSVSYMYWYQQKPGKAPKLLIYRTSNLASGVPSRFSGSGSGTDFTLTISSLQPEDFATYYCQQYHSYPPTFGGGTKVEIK", "Class label": "Fulfilled"}
{"Binder": "suPAR_DB03_D08 (scFv, V domains shown, screened as scFv) VH: QVQLVQSGAEVKKPGASVKVSCKASGYTFTGYYMHWVRQAPGQGLEWMGWIDPENGSTIYDQKFQGRVTMTRDTSTSTVYMELSSLRSEDTAVYYCARGYDVDWFVYWGQGTLVTVSS VL: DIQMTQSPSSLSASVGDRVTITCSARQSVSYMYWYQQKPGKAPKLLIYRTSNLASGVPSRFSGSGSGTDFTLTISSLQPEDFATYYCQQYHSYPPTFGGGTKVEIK", "Class label": "Fulfilled"}

As a next step, examine the binder that follows.
Record suPAR_DB03_C01 (scFv, V domains shown, screened as scFv) VH: QVQLVQSGAEVKKPGASVKVSCKASGSTSTDHYVHWVRQAPGQGLEWMGWIDHEGGSTIYAQKFQGRVTMTRDTSTSTVYMELSSLRSEDTAVYYCARGYDVDWFVYWGQGTLVTVSS VL: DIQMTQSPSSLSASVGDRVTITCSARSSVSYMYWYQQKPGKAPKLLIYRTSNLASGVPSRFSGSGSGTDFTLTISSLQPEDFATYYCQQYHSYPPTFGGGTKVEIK ; criterion: koff no lower than 0.0002 s⁻¹. Met? Not fulfilled
